Test system: IgE (immunoglobulin E, monoclonal, kappa light chain) (Homo sapiens)
REPORTED CONDITIONS: affinity capillary electrophoresis with LIF; PBS, 1 mM MgCl2, 35 mM NaCl, pH 8.0, 25 C
pKd: −log10 of the molar value.
QUANTITY: pKd

- RESIDUES: "AGCAGCACAGAGGTCAGATGGTAATTTTCGCTGCGATTAGGCTTGTGACAAAATTACTATCCTATGCGTGCTACCGTGAA [Clone 1.8]"
  REPORTED: 6.53
